Collected pEC50 values appear next to each entry.
- assay-system: human GPR40 (Homo sapiens, UniProt O14842)
- Sequence (O14842 whole entry): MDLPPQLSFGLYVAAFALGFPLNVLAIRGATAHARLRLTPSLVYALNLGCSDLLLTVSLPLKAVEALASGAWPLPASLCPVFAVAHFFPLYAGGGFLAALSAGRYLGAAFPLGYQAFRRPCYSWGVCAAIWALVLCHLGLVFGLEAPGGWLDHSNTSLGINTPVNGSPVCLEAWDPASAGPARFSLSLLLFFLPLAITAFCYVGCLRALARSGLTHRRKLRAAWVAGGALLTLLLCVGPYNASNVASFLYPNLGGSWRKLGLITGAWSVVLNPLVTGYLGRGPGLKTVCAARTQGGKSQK
- test: FDSS-based intracellular calcium assay (Human GPR40 in vitro assay)
- Type: cell-based
- Design: 3xFLAG; expressed in transfected cells
- run-conditions: intracellular Ca2+ response, cells expressing GPR40; read-out: hGPR40 EC50
Here pEC50 is given on a logarithmic scale as minus log10 of the concentration in mol/L.

// known answers, use as guide
Task item: Record request: pEC50 value, item CCOc1ccc(F)c(N2CCC(Cc3ccc(N4N=C(C(F)(F)F)[C@@H](C)[C@@H]4CC(=O)O)cc3)C(C)C2)c1 (single isomer, unassigned) [Example 3 (Isomer 4)]
Reply: 6.17

Task item: Item: C[C@@H]1C(C(F)(F)F)=NN(c2ccc(OC3CCN(c4nccc(C(F)(F)F)n4)CC3)cc2)[C@H]1CC(=O)O
Reply: 5.85

Here is another compound to look at.
Task item: Record request: pEC50 value, item CCOc1ccc(F)c(N2CCC(Cc3ccc(N4N=C(C(F)(F)F)[C@@H](C)[C@@H]4CC(=O)O)cc3)C(C)C2)c1 (single isomer, unassigned) [Example 3 (Isomer 3)]
Reply: 5.94

Where do these numbers come from? They come from patent US9604964B2.
